Give log10(IC50) for every item shown.
target: PI3K delta (Homo sapiens); construct: for the full-length p110-d subunit are generated and fused by overlapping PCR; p85(iSH2) fusion partner (see partner chain) (N); His tag (C); Tn5 (Trichoplusia ni) or TiniPro insect cells; assay: PI3K delta kinase assay (Kinase-Glo luminescence)
Sequence (O00329 with tags, fused parts or gaps limits assumed): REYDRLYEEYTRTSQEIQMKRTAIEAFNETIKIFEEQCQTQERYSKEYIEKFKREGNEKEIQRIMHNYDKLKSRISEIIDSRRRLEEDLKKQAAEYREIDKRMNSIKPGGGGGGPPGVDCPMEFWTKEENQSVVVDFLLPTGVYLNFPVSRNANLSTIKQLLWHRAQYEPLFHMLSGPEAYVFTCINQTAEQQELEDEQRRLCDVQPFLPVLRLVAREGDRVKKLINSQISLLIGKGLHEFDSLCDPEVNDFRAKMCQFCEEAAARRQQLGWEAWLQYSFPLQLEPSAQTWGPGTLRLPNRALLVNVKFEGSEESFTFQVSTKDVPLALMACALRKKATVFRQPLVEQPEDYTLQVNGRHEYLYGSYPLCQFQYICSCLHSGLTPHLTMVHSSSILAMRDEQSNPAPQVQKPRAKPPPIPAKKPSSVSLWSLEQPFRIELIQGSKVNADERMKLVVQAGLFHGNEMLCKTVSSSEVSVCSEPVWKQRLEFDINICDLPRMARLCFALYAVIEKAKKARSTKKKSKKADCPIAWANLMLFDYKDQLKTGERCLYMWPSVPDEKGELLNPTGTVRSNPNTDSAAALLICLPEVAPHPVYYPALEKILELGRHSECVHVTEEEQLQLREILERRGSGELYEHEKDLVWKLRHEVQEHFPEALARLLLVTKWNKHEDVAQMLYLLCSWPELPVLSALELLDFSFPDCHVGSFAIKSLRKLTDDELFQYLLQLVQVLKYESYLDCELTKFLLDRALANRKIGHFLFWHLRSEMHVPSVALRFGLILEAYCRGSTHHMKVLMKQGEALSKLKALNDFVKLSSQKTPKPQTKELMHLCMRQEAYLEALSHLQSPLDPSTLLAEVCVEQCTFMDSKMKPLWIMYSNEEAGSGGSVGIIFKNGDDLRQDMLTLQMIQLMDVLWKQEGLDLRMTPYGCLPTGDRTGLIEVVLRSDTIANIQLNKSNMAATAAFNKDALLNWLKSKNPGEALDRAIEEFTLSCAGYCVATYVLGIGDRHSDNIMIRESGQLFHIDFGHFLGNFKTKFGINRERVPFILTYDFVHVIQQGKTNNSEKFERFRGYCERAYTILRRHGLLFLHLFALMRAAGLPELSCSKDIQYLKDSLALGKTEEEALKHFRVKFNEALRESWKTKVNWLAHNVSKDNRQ
Give log10 of IC50, with IC50 taken in nM.

q: Consider the molecule shown here: "CCOc1ccc(-c2ccc3ncc4c(c3c2)n(-c2cn(CC(=O)N(C)C)nc2C)c(=O)n4C)cn1" What is its recorded log10(IC50)?
a: 2.05

q: Please answer likewise for "CCOc1cc(-c2ccc3ncc4c(c3c2)n(-c2c(C)nn(CC(=O)N(C)C)c2C)c(=O)n4C)cnc1C"
a: 1.66

q: Please answer likewise for "Cc1nn(C)cc1-n1c(=O)n(C)c2cnc3ccc(-c4cccc(OC(C)C)c4F)cc3c21"
a: 2.37

q: Please answer likewise for "COc1ccc(-c2ccc3ncc4c(c3c2)n(-c2cc(C)nn2C)c(=O)n4C)cn1"
a: 1.48

q: Please answer likewise for "Cc1nn(C)cc1-n1c(=O)n(C)c2cnc3ccc(-c4ccnc(OC(C)C)c4)cc3c21"
a: 2.10

q: Please answer likewise for "Cc1ncc(-c2ccc3ncc4c(c3c2)n(-c2cn(C)nc2C)c(=O)n4C)cc1NS(C)(=O)=O"
a: 0.48

q: Please answer likewise for "CCOCc1ncc(-c2ccc3ncc4c(c3c2)n(-c2cn(C)nc2Cl)c(=O)n4C)cc1OC"
a: 0.70

q: Please answer likewise for "CCn1cc(-n2c(=O)n(C)c3cnc4ccc(-c5cnc(OC)nc5)cc4c32)c(C)n1"
a: 1.30

q: Please answer likewise for "CCOCc1cc(-c2ccc3ncc4c(c3c2)n(-c2cn(C)nc2C)c(=O)n4C)cnc1N"
a: 0.48

q: Please answer likewise for "CO[C@H]1CCN(c2ccc(-c3ccc4ncc5c(c4c3)n(-c3cn(C)nc3C)c(=O)n5C)cn2)C1"
a: 2.32

q: Please answer likewise for "CCOc1ccc(-c2ccc3ncc4c(c3c2)n(-c2cn(CC(=O)N(C)CC)nc2C)c(=O)n4C)cn1"
a: 2.33

q: Please answer likewise for "CNC(=O)c1cc(-c2ccc3ncc4c(c3c2)n(-c2cn(C)nc2C)c(=O)n4C)cnc1N"
a: 1.46

q: Please answer likewise for "CNc1ccc(-c2ccc3ncc4c(c3c2)n(-c2cn(CC(=O)N(C)C)nc2C)c(=O)n4C)cn1"
a: 1.92

q: Please answer likewise for "CCOc1ccc(-c2ccc3ncc4c(c3c2)n(-c2cc(C(F)(F)F)nn2C)c(=O)n4C)cn1"
a: 2.60

* * *

experiment: Solubility at pH 6.8; format: physicochemical; conditions: pH 6.8, aqueous buffer, thermodynamic from solid; read-out: solubility
Give solubility for every item shown.
Expressed in µg/mL, but write only the number.

q: Consider the compound shown here: "Cc1nn(C)cc1-n1c(=O)[nH]c2cnc3ccc(-c4cnc(N(C)C)nc4)cc3c21" What is its recorded solubility?
a: 18

q: Please answer likewise for "COc1ccc(-c2ccc3ncc4c(c3c2)n(-c2cn(C)nc2C)c(=O)n4C)cc1OC"
a: 10

q: Please answer likewise for "COc1ncc(-c2ccc3ncc4c(c3c2)n(-c2cn(C(C)C)nc2C)c(=O)n4C)c(OC)n1"
a: 13

q: Please answer likewise for "COC(C)(C)c1cncc(-c2ccc3ncc4c(c3c2)n(-c2cn(C)nc2C)c(=O)n4C)c1"
a: 125

q: Please answer likewise for "CCOc1ccc(-c2ccc3ncc4c(c3c2)n(-c2c(C)nn(C)c2C)c(=O)n4C)cc1OCC"
a: 4

q: Please answer likewise for "Cc1nn(C)c(C)c1-n1c(=O)n(C)c2cnc3ccc(-c4cnc(N)c(Cl)c4)cc3c21"
a: 92

q: Please answer likewise for "COc1ccc(-c2ccc3ncc4c(c3n2)n(-c2cn(C)nc2C)c(=O)n4C)cc1OC"
a: 5
